Biological target: Cytochrome P450 2C9 (Homo sapiens, UniProt P11712)
Sequence (P11712 whole entry): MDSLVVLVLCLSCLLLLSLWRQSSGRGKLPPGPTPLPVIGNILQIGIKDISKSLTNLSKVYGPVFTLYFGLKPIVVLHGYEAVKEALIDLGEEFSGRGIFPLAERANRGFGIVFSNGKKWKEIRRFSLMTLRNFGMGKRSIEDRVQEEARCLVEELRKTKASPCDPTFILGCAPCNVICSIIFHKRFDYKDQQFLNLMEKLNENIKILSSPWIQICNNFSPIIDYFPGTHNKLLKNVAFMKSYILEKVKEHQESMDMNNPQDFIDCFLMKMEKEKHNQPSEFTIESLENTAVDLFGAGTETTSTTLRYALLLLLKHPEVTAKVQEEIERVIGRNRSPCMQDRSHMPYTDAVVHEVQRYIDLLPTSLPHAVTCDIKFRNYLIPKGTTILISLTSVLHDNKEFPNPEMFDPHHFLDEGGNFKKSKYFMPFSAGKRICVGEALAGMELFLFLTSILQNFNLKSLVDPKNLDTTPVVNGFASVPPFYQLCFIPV
pIC50: −log10 of the molar value.
Experimental Endpoint: pIC50

COc1ccc2nc3cc(Cl)ccc3c(Nc3ccc(O)c(CN4CCN(C)CC4)c3)c2c1; 4.30 to 5.00

(Q) Observed pIC50 on Cytochrome P450 2C9 (Homo sapiens, UniProt P11712) for COc1ccc2nc3cc(Cl)ccc3c(Nc3ccc(O)c(CN4CCN(CCN(C)C)CC4)c3)c2c1 , please.
(A) < 6.00

----------
Target: Cytochrome P450 3A4 (Homo sapiens, UniProt P08684)
Sequence (P08684 whole entry): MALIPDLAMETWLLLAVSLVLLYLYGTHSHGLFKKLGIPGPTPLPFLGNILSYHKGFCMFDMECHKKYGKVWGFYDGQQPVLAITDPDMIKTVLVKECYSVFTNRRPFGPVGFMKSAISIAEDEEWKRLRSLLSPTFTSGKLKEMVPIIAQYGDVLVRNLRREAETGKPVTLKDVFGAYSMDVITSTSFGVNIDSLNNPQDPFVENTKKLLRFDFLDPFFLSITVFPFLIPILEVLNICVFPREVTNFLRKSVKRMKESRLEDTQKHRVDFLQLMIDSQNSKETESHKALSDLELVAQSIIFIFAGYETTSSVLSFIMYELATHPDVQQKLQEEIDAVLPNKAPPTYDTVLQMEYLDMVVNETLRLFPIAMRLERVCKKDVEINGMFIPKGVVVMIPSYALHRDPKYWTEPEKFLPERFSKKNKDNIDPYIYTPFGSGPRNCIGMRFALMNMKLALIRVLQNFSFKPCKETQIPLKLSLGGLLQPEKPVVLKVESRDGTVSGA
Experimental Endpoint: IC50

(Q) For COc1ccc2nc3cc(Cl)ccc3c(Nc3ccc(O)c(CN4CCN(C)CC4)c3)c2c1 , what is its reported IC50?
(A) 1 to 10 µM
